System: 621-102 (TSC2-deficient);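 also: immortalized renal angiomyolipoma cells stably carrying empty vector or TSC2, dosed in 384-well plates in DMEM, viability normalized to vehicle-treated wells within each plate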
Assay: relative viability vs DMSO; higher = less cytotoxic
Settings: 1 µM; serum: 10% FBS; 72 h
Structures can show the parent of a compound that is named as a salt.
observation.type: relative viability (%)
// note: answer is a bare numeric in %

Exercise: I'd like to know its relative viability. The molecule in question is NCCc1ccc(O)c(O)c1 [Dopamine HCl]
Key: 89.7

Exercise: I'd like to know its relative viability. The molecule in question is `CNC(=O)c1ccccc1Sc1ccc2c(/C=C/c3ccccn3)n[nH]c2c1`
Key: 104

Exercise: I'd like to know its relative viability. The molecule in question is `Oc1nc(-c2ccc(C(F)(F)F)cc2)nc2c1CSCC2`
Key: 120

Exercise: I'd like to know its relative viability. The molecule in question is `CC(C)c1nc(CN(C)C(=O)N[C@H](C(=O)N[C@@H](Cc2ccccc2)C[C@H](O)[C@H](Cc2ccccc2)NC(=O)OCc2cncs2)C(C)C)cs1`
Key: 100

Exercise: I'd like to know its relative viability. The molecule in question is `Cc1[nH]nc2ccc(-c3cncc(OC[C@@H](N)Cc4ccccc4)c3)cc12`
Key: 66.5

Exercise: I'd like to know its relative viability. The molecule in question is COc1ccccc1N1CCN(CC(O)COc2cccc3ccccc23)CC1 (stereo not drawn) [Naftopidil Dihydrochloride]
Key: 106

Exercise: I'd like to know its relative viability. The molecule in question is `COc1ccccc1N1CCN(CCN2C(=O)CC3(CCCC3)CC2=O)CC1`
Key: 105

Exercise: I'd like to know its relative viability. The molecule in question is CCN1CCCC1CNC(=O)c1cc(S(=O)(=O)CC)c(N)cc1OC (stereo not drawn) [Amisulpride]
Key: 107

Exercise: I'd like to know its relative viability. The molecule in question is Nc1ncnc2c1c(-c1cccc(OCc3ccccc3)c1)cn2C1CC(CN2CCCC2)C1 (stereo not drawn)
Key: 77.3

Exercise: I'd like to know its relative viability. The molecule in question is CC(NCCc1ccc(O)cc1)C(O)c1ccc(O)cc1 (stereo not drawn) [Ritodrine HCl]
Key: 100

Exercise: I'd like to know its relative viability. The molecule in question is `COc1cc2ncnc(Nc3ccc(F)c(Cl)c3)c2cc1OCCCN1CCOCC1`
Key: 100

Exercise: I'd like to know its relative viability. The molecule in question is `CN(C)Cc1cccc(N/C(=C2\C(=O)Nc3cc(C(N)=O)ccc32)c2ccccc2)c1`
Key: 99.9

Exercise: I'd like to know its relative viability. The molecule in question is `CN1CCN(C2=Nc3cc(Cl)ccc3Nc3ccccc32)CC1`
Key: 94.5

Exercise: I'd like to know its relative viability. The molecule in question is Cc1cc(C(C)Nc2ccccc2)c2nc(N3CCOCC3)cc(=O)n2c1 (stereo not drawn)
Key: 114

Exercise: I'd like to know its relative viability. The molecule in question is `O=c1cc(N2CCOCC2)oc2c(-c3cccc4c3sc3ccccc34)cccc12`
Key: 88.7

Exercise: I'd like to know its relative viability. The molecule in question is `FC(F)(F)c1ccc(Nc2nc3ccc(Oc4ccnc(-c5ncc(C(F)(F)F)[nH]5)c4)cc3[nH]2)cc1`
Key: 102

Exercise: I'd like to know its relative viability. The molecule in question is Clc1ccc(C(Cn2ccnc2)OCc2c(Cl)cccc2Cl)c(Cl)c1 (stereo not drawn)
Key: 107

Exercise: I'd like to know its relative viability. The molecule in question is C[N+]1(C)[C@@H]2C[C@@H](OC(=O)C(O)(c3cccs3)c3cccs3)C[C@H]1[C@@H]1O[C@@H]12 [Tiotropium Bromide hydrate]
Key: 116
